- tested_system: T1, natural Fel d1 (Indoor Biotech, #NA-FD1-2) (cat, UniProt P30438 23-92; P30440 18-109)
- T1 construct: Bought natural heterodimeric glycoprotein, chains linked by disulfide bonds; also called nFel d1; nFel d 1
- T1 sequence (P30438 other isoform, or with tags, fused parts or gaps, chain 1 of 2): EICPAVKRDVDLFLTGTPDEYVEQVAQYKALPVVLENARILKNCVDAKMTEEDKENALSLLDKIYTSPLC
- T1 sequence (P30440 18-109, chain 2 of 2): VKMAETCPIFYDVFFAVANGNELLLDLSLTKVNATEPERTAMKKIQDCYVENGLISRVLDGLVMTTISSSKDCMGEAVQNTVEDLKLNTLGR
- method: Octet BLI, mAb captured on anti-hFc tip, 500 nM nFel d1
measured_metric: Amount of 500 nM nFel d1 Bound

[[record]]
binder = "H4H1232N (antibody, human IgG4, V domains shown, human IgG4 Fc (H4H prefix)) VH: EVQLVESGGGLVKPGGSLRLSCAASGFTFRNYNINWVRQAPGKGLEWVSLISGSSSYIYYADSVKGRFTVSRDNAKNSLYLQMNSLRAEDTAVYYCARRTLSYYVMDVWGQGTTVTVSS VL: DIQVTQSPSPLSASVGDRVTITCRASQGISNYLAWYQQKPGRVPQLLIYAASTLQSGVPSRFSGSGSGTDFTLTISSLQPEDVATYYCQKYNSAPYTFGQGTKLEIK"
data_value = "0.08 nm"

